Where do these numbers come from? They come from the supplement of paper PMC4858399.

Tested on: Caenorhabditis elegans N2
Experiment: lowest effective concentration for larval growth inhibition (size below effect threshold); higher = less potent
Conditions: exposure time 48 h
Attribute: lowest effective concentration
Give the quantity in µM, number only.

Record excerpt, results attached:
compound	experimental-target	value-unit	val
O=S(=O)(O)C(F)(F)C(F)(F)C(F)(F)C(F)(F)C(F)(F)C(F)(F)C(F)(F)C(F)(F)F [Perfluorooctane sulfonic acid]	Caenorhabditis elegans N2	µM	5
CCc1nn(C2CCCCC2)c2cc(C3(C#N)CCC(C(=O)O)CC3)ccc12 (stereo not given)	Caenorhabditis elegans N2	µM	200
O=S1OCC2C(CO1)C1(Cl)C(Cl)=C(Cl)C2(Cl)C1(Cl)Cl (stereo not given) [Endosulfan]	Caenorhabditis elegans N2	µM	5

Then there is this compound:
Which lowest effective concentration value belongs to CC(C)N(C(=O)SCC(Cl)=C(Cl)Cl)C(C)C [Tri-allate] ?
50

* * *

Tested on: Caenorhabditis elegans N2
Experiment: mean nematode size ln(EXT) after 48 h, plate-adjusted (DMSO control set to 6) (ln(EXT), control-adjusted); higher = larger nematodes / less growth inhibition
Settings: 10 µM; exposure time 48 h
reported-endpoint: mean nematode size ln(EXT) (ln)
Write the number on its own, no unit after it.

compound	reported-endpoint	val
COC(=O)c1c(Cl)c(Cl)c(C(=O)OC)c(Cl)c1Cl [Chlorthal-dimethyl]	mean nematode size ln(EXT) (ln)	5.83
C=CC(=O)NCNC(=O)C=C [N,N'-Methylenebis(acrylamide)]	mean nematode size ln(EXT) (ln)	6.01
Brc1ccc(Oc2ccccc2)cc1 [p-Bromodiphenyl-ether]	mean nematode size ln(EXT) (ln)	5.54
c1ccc2c(c1)-c1cccc3c1c-2cc1ccccc13 [Benzo[b]fluoranthene]	mean nematode size ln(EXT) (ln)	4.15
O=S(=O)(O)C(F)(F)C(F)(F)C(F)(F)C(F)(F)C(F)(F)C(F)(F)C(F)(F)C(F)(F)F [Perfluorooctane sulfonic acid]	mean nematode size ln(EXT) (ln)	5.06
CN(C)c1ccc(N=NS(=O)(=O)O)cc1 [Fenaminosulf]	mean nematode size ln(EXT) (ln)	5.86

Could you share what mean nematode size ln(EXT) (ln) was measured for CCCOC(=O)c1ccc(O)cc1 [Propylparaben] , tested on Caenorhabditis elegans N2?
5.92

Request body: readout mean nematode size ln(EXT) (ln), system Caenorhabditis elegans N2, query CN1CSC(=S)N(C)C1 [Dazomet] . Return the value.
5.71

Item O=NO [Sodium nitrite] with Caenorhabditis elegans N2 - mean nematode size ln(EXT) (ln)?
6.03

Provide the documented mean nematode size ln(EXT) (ln) with Caenorhabditis elegans N2 as the system for COc1ccccc1N [2-Anisidine]
5.82

Notebook: pull reported mean nematode size ln(EXT) (ln) for Caenorhabditis elegans N2, entry COC(=O)Nc1nc2ccccc2[nH]1 [methyl 1H-benzimidazol-2-ylcarbamate]
5.32

Request body: readout mean nematode size ln(EXT) (ln), system Caenorhabditis elegans N2, query CN(C)c1ccccc1 [N,N-Dimethylaniline] . Return the value.
6.01

Observed mean nematode size ln(EXT) (ln) on Caenorhabditis elegans N2 for OC(c1ccc(Cl)cc1)(c1cncnc1)c1ccccc1Cl (stereo unspecified) [Fenarimol] , please.
5.92

Reported mean nematode size ln(EXT) (ln) for Caenorhabditis elegans N2, given CS(=O)(=O)NC(=O)c1cc(Oc2ccc(C(F)(F)F)cc2Cl)ccc1[N+](=O)[O-] [Fomesafen] ?
5.95

What mean nematode size ln(EXT) (ln) appears in the records for this compound with Caenorhabditis elegans N2? `N#Cc1ccc(N(CC(N)=O)CC(F)(F)F)cc1C(F)(F)F`
6

Short answer please: mean nematode size ln(EXT) (ln), Caenorhabditis elegans N2, entry `CCn1nc(Cc2ccccc2)cc1C1CCN(C[C@H]2C[C@H](N(C)[C@@H](C(=O)O)C(C)C)C[C@@H]2c2cccc(F)c2)CC1`
5.93
